The values you see were collected from patent US20240109881A1.

assay: Pharmacokinetic studies in mice (plasma PK, IV and PO); assay type: in vivo; details: mouse, 0.5 mg/kg; female C57B16 mice, IV 0.50 mg/kg, plasma
Counter-ions that a name gives are not always drawn.
measurement label: AUC(0-t) (µM·h)

[A] C[C@H](C#N)Nc1cc(-n2ncc3cc(C#N)cnc32)ncc1-n1cc(C2CCC(CCN3CCN(c4ccc(C5CCC(=O)NC5=O)cc4)[C@H](C)C3)CC2)nn1 (stereo partly drawn)
[B] C[C@H](C#N)Nc1cc(-n2ncc3cc(C#N)cnc32)ncc1-n1cc([C@H]2CC[C@H](CCN3CCN(c4ccc(C5CCC(=O)NC5=O)cc4)CC3)CC2)nn1 (stereo partly drawn) [P-139, formic acid salt]
[C] C[C@H](C#N)Nc1cc(-n2ncc3cc(C#N)c(N)nc32)ncc1-n1cc([C@H]2CC[C@H](CCN3CCN(c4ccc(C5CCC(=O)NC5=O)cc4)CC3)CC2)nn1 (stereo partly drawn) [P-160, TFA]
Query block: Please give the order of these compounds when sorted by AUC(0-t), largest value leading. Answer format: list of labels, ordered as asked.
Result block: A, B, C
(A: 2.01 µM·h, B: 1.06 µM·h, C: 0.739 µM·h)

====

biological target: IRAK4 (Homo sapiens); construct: endogenous in cells; host or cells: THP-1 cells; test: ALE THP1 HTRF (Advanced Lipoxidation End Product THP1 Homogeneous Time Resolved Fluorescence); assay type: cell-based; conditions: THP1 cells
measurement label: ALE THP1 HTRF YMIN (%)

In the examples that follow, each entry is paired with its recorded ALE THP1 HTRF YMIN.
N#Cc1cnc2c(cnn2-c2cc(NC3CC3)c(-n3cc([C@H]4CC[C@H](CCN5CCN(c6ccc(C7CCC(=O)NC7=O)cc6)CC5)CC4)nn3)cn2)c1 (some centres unmarked) [P-154]    10.0
C[C@H]1CN(c2ccc(C3CCC(=O)NC3=O)cc2)C[C@H](C)N1CC[C@H]1CC[C@H](NC(=O)c2cnc(-n3ncc4cc(C#N)cnc43)cc2NC2CC2)CC1 (some centres unmarked) [P-116]    8.3
N#Cc1cnc2c(cnn2-c2cc(NC3CC3)c(C(=O)N[C@H]3CC[C@H](CCN4CCC(c5ccc(C6(F)CCC(=O)NC6=O)cc5)CC4)CC3)cn2)c1 (single isomer, unassigned) [P-126]    14.9

[a] CC(C)(C[C@H]1CC[C@H](NC(=O)c2cnc(-n3ncc4cc(C#N)cnc43)cc2NC2CCCC2)CC1)N1CCN(c2ccc(C3CCC(=O)NC3=O)cc2)CC1 (some centres unmarked) [P-81]
[b] N#Cc1cnc2c(cnn2-c2cc(NC3CC3)c(C(=O)N[C@H]3CC[C@H](CN4CCC5(CCN(c6ccc7c(c6)CN(C6CCC(=O)NC6=O)C7=O)CC5)C4)CC3)cn2)c1 (some centres unmarked) [P-130]
Query block: Please compare: a and b . Report which one has the smaller ALE THP1 HTRF YMIN value. // respond with label for picked entry
Result block: a

====

target: IRAK4 (Homo sapiens, UniProt Q9NWZ3); construct: endogenous in cells; host or cells: THP-1 cells; test: LVL THP1 HTRF (THP1 Homogeneous Time Resolved Fluorescence); type: cell-based; settings: THP1 cells, 18 h incubation with compound
Sequence (Q9NWZ3 whole entry): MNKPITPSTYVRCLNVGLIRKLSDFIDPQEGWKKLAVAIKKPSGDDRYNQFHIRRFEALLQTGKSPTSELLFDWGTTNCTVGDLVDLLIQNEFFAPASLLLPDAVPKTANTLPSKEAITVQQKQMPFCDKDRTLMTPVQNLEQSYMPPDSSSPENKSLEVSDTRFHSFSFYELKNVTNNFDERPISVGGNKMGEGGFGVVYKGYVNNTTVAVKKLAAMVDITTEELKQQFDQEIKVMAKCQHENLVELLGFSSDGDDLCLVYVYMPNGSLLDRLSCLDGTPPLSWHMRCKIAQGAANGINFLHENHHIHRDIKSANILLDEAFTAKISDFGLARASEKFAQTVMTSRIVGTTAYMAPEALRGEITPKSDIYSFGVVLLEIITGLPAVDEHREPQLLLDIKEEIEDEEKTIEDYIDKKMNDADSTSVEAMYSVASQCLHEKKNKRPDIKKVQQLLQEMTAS
measurement label: LVL THP1 HTRF YMIN (%)

[I] C[C@H](C#N)Nc1cc(-n2ncc3cc(C#N)cnc32)ncc1-n1cc([C@H]2CC[C@H](C(Cl)CN3CCN(c4ccc(C5CCC(=O)NC5=O)cc4)CC3)CC2)nn1 (stereo partly drawn)
[II] C[C@H](C#N)Nc1cc(-n2ncc3cc(C#N)cnc32)ncc1-n1cc([C@H]2CC[C@H](CCN3CC[C@H]4[C@@H]3CCN4c3ccc(N4CCC(=O)NC4=O)c(F)c3)CC2)nn1 (single isomer, unassigned) [P-480]
[III] CC(C#N)Nc1cc(-n2ncc3cc(C#N)cnc32)ncc1-n1cc(C23CCC(CCN4CCN(c5ccc(C6CCC(=O)NC6=O)cc5)CC4)(CC2)CC3)nn1 (stereo not drawn)
Query block: Highest LVL THP1 HTRF YMIN first, then in falling order down to the smallest. Sort the labels as requested; that list is your answer.
Result block: I, III, II
(I: 2.7%, III: 1.5%, II: 0.8%)

====

biological target: IRAK4 (Homo sapiens, UniProt Q9NWZ3); construct: endogenous in cells; host or cells: THP-1 cells; assay: LVL THP1 HTRF (THP1 Homogeneous Time Resolved Fluorescence); assay type: cell-based; conditions: THP1 cells, 18 h incubation with compound, read-out: LVL THP1 HTRF EC50
Structures can show the parent of a compound that is named as a salt.
measurement label: DC50 (nM)

Worked set:
C[C@H](C#N)Nc1cc(-n2ncc3cc(C#N)c(N)nc32)ncc1-n1cc([C@H]2CC[C@H](CCN3CCN(c4ccc(C5CCC(=O)NC5=O)cc4)CC3)CC2)nn1 (stereo partly shown) [P-160, TFA]    4
C[C@H](C#N)Nc1cc(-n2ncc3cc(C#N)c(N)nc32)ncc1-n1cc([C@H]2CC[C@H](CCN3CCN(c4cnc([C@@]5(C)CCC(=O)NC5=O)cn4)CC3)CC2)nn1 (single isomer, unassigned) [P-268]    2.1
C[C@H](C#N)Nc1cc(-n2ncc3cc(C#N)cnc32)ncc1-n1cc([C@H]2CC[C@H](CCN3CCN(c4ccc(C5(C)CCC(=O)NC5=O)cc4)CC3)CC2)nn1 (single isomer, unassigned)    7
C[C@H](C#N)Nc1cc(-n2ncc3cc(C#N)cnc32)ncc1-n1cc([C@H]2CC[C@H](CCN3CCC(c4ccc([C@@]5(C)CCC(=O)NC5=O)cc4)CC3)CC2)nn1    8
C[C@H](C#N)Nc1cc(-n2ncc3cc(C#N)cnc32)ncc1-n1cc([C@H]2CC[C@](O)(CCN3CCN(c4ccc([C@@]5(C)CCC(=O)NC5=O)nc4)CC3)CC2)nn1 (single isomer, unassigned) [P-419]    31.6

[A] C[C@H](C#N)Nc1cc(-n2ncc3cc(C#N)cnc32)ncc1-n1cc([C@H]2CC[C@H](CCN3CC[C@H]4[C@@H]3CCN4c3ccc([C@@]4(C)CCC(=O)NC4=O)nc3)CC2)nn1 (single isomer, unassigned) [P-418]
[B] Cc1cc(N2CCN(CC[C@H]3CC[C@H](c4cn(-c5cnc(-n6ncc7cc(C#N)cnc76)cc5N[C@H](C)C#N)nn4)CC3)CC2)ccc1N1CCC(=O)NC1=O
[C] C[C@H](C#N)Nc1cc(-n2ncc3cc(C#N)cnc32)ncc1-n1cc([C@H]2CC[C@](O)(CCN3CCN(c4ccc([C@@]5(C)CCC(=O)NC5=O)nc4)CC3)CC2)nn1 (single isomer, unassigned) [P-280]
[D] C[C@H](C#N)Nc1cc(-n2ncc3cc(C#N)cnc32)ncc1C(=O)N[C@H]1CC[C@H](CCN2CCN(c3ccc(C4CCC(=O)NC4=O)cc3)C3(COC3)C2)CC1 (stereo partly shown)
[E] C[C@H](C#N)Nc1cc(-n2ncc3cc(C#N)cnc32)ncc1-n1cc([C@H]2CC[C@H](CCN3CCC(c4ccc([C@@]5(F)CCC(=O)NC5=O)cc4)CC3)CC2)nn1 (single isomer, unassigned) [P-337]
Query block: Descending sort on DC50 required. Respond with an ordered listing of the labels, as requested.
Result block: D, C, A, B, E
(D: 158 nM, C: 107 nM, A: 14.9 nM, B: 7.6 nM, E: 3.8 nM)

[P] CC(F)(F)CNc1cc(-n2ncc3cc(C#N)c(N)nc32)ncc1C(=O)N[C@H]1CC[C@H](CCN2CCN(c3ccc(C4CCC(=O)NC4=O)cc3)CC2)CC1 (stereo partly shown)
[Q] C[C@H](C#N)Nc1cc(-n2ncc3cncnc32)ncc1-n1cc([C@H]2CC[C@H](CCN3CCN(c4ccc([C@@]5(C)CCC(=O)NC5=O)cc4)CC3)CC2)nn1
[R] C[C@H](C#N)Nc1cc(-n2ncc3cc(C#N)cnc32)ncc1-n1cc([C@H]2CC[C@H](CCN3CCC(c4ccc(C5CCC(=O)NC5=O)cc4)CC3)CC2)nn1 (stereo partly shown)
[S] C[C@H](C#N)Nc1cc(-n2ncc3cc(C#N)cnc32)ncc1-n1cc(C2CCC(CCN3CCN(c4ccc(N5CCC(=O)NC5=O)cc4)[C@@H]4CCC[C@@H]43)CC2)nn1 (single isomer, unassigned)
Query block: hey, can you rank those compounds up there by DC50? biggest number first please List labels; respect the requested ordering.
Result block: S, Q, P, R
(S: 197 nM, Q: 133 nM, P: 17 nM, R: 1 nM)

[A] C[C@H](C#N)Nc1cc(-n2ncc3cc(C#N)c(N)nc32)ncc1-n1cc([C@H]2CC[C@H](CCN3CCN(c4ccc([C@@]5(C)CCC(=O)NC5=O)nn4)CC3)CC2)nn1 (single isomer, unassigned) [P-308]
[B] C[C@H](C#N)Nc1cc(Nc2ncc(C#N)cn2)ncc1-n1cc([C@H]2CC[C@H](CCN3CCN(c4ccc([C@@]5(C)CCC(=O)NC5=O)cc4)CC3)CC2)nn1
Query block: Would you kindly point out which of A and B has the smaller DC50 figure? Mark your answer with the label of the selected entry.
Result block: A
